system.under.test: cardiac phosphodiesterase III (PDEIII), guinea-pig (Cavia porcellus, UniProt H0VIU9)
Construct: enzyme preparation isolated from dog and guinea-pig heart; from tissue; host or cells: guinea-pig heart
Sequence (H0VIU9 1-1132): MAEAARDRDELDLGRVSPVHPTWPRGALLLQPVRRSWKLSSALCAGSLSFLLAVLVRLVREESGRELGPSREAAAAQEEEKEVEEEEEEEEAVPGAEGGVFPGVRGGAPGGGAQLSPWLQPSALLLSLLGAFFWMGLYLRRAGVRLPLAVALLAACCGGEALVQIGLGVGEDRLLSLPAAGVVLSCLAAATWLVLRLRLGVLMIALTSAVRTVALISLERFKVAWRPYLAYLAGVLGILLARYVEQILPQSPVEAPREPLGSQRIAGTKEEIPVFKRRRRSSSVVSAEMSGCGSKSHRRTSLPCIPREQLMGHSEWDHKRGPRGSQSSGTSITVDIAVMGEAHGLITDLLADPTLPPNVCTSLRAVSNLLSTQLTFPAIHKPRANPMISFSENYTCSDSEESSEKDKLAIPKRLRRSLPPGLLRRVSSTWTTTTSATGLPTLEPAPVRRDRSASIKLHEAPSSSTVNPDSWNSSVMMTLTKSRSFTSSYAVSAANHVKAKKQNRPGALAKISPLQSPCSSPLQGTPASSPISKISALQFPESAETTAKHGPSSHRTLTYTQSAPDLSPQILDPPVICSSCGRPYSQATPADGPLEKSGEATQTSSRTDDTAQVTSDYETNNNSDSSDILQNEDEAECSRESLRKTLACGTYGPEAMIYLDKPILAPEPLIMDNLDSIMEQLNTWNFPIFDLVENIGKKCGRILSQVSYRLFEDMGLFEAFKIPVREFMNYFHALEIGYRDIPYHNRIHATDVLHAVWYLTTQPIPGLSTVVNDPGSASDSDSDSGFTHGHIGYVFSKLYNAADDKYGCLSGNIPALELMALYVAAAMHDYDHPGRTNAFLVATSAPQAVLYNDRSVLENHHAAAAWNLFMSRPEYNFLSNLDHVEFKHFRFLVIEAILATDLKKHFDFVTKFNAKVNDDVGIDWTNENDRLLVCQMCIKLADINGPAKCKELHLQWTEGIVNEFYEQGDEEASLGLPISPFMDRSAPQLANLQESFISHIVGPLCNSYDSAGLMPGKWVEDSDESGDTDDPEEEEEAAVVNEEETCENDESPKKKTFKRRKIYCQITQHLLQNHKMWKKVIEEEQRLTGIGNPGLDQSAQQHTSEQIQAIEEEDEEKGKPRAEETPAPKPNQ
protocol: Inhibition of cardiac phosphodiesterase III, guinea-pig heart enzyme preparation
Assay type: biochemical
Record form. Attribute: pIC50. Fill in for each entry.
Give bare numbers, as −log10 of the molar value.

Sample records with pIC50:
// N#CC(C#N)=NNc1ccc(C=CC2=NNC(=O)SC2)cc1 [Example 49] : pIC50 value = 7.62

Value of pIC50 reported for the compound CC1CC(=O)NN=C1/C=C/c1ccc(NN=C(C#N)C#N)cc1 (stereo not drawn) [Example 33] is 8.22

So, N#CC(C#N)=NNc1ccc(C2=NNC(=O)SC2)cc1 [Example 44] ? Its pIC50 was 7.29

Reported pIC50 of CC1NC(=O)NN=C1c1ccc(NN=C(C#N)C#N)cc1 (stereo not drawn) [Example 43] : 7.77

Field pIC50 (entry CC1SC(=O)NN=C1c1ccc(NN=C(C#N)C#N)cc1 (stereo not drawn) [Example 41] ) reads 7.62

Moving on to the next compound.
According to the records, this compound Cc1[nH]c(=O)c(C#N)cc1-c1ccncc1 [milrinone, reference compound] displays pIC50 of 6.36
